- Tested on: B/Washington/02/2019
- TEST_NAME: CPE inhibition assay
- Type: cell-based
- ASSAY_CONDITIONS: Influenza B virus; B/M2; infected MDCK cells, MOI = 0.01, 48 hpi; read-out: EC50 ± SD B/Washington/02/2019
Below: a set of entries, each annotated with reported EC50.
The figure you give is taken to be in µM; do not add the unit.

{"COMPOUND": "COc1ccc(Br)cc1CNC12CC3CC(C)(CC(C)(C3)C1)C2 [DABMA]", "EC50 [µM]": 6.62}
{"COMPOUND": "NC(=O)c1ncn([C@@H]2O[C@H](CO)[C@@H](O)[C@H]2O)n1 [Ribavirin, ribavirin]", "EC50 [µM]": 3.02}

Now look at this one.
Query: Need EC50, item COc1ccc(Br)cc1CNC12CC3CC(CC(C3)C1)C2 [ABMA]
Reply: 7.36

----------
- Test system: A/NY/61/LV16A (H1N1)
- TEST_NAME: CPE inhibition assay
- Format: cell-based
- ASSAY_CONDITIONS: Influenza A virus, H1N1, MDCK; read-out: EC50 ± SD A/NY/61/LV16A (H1N1)
Structures can show the parent of a compound that is named as a salt.
Decision: EC50 beneath 8 µM gives rule met; EC50 meeting or exceeding 8 µM gives rule not met.

Query: A record lists NC12CC3CC(CC(C3)C1)C2 [Amantadine, Amantadine hydrochloride] . Is its EC50 below 8 µM?
Reply: rule not met

Query: Input "COc1ccc(Br)cc1CNC12CC3CC(CC(C3)C1)C2" ; condition: EC50 strictly below 8 µM. Does it hold?
Reply: rule met

Query: Hi there! Is EC50 for CCN(CC)CCCC(C)Nc1ccnc2cc(Cl)ccc12 (centres unmarked) [Chloroquine, reference compound] below 8 µM, do you know?
Reply: rule not met

Query: # TODO verify EC50 < 8 µM strictly for this compound: "COc1ccc(Br)cc1CNC12CC3CC(C)(CC(C)(C3)C1)C2"
Reply: rule met

Source listed as paper PMC8999625.
